Would you mind telling me the reported AC50 of each entry?
Molecular target: Microphthalmia-associated transcription factor (Homo sapiens, UniProt O75030)
Sequence (O75030 whole entry): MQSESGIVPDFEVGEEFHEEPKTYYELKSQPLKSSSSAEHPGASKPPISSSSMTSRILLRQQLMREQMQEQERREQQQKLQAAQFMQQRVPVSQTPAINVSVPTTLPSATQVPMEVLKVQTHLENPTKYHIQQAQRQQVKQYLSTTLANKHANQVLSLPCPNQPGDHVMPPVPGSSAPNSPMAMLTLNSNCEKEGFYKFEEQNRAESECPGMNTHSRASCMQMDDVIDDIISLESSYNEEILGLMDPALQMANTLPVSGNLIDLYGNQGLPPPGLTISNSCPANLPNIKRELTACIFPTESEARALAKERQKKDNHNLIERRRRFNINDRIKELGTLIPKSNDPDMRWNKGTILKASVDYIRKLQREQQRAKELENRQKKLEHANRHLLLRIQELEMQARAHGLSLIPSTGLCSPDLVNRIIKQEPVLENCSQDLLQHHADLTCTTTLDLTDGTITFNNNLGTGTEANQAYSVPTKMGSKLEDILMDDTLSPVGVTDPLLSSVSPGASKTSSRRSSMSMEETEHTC
Assay: reducers of TRPM1 reporter luminescence, concentration series – cell-based, SK-MEL-5, cherry-picked, set 3, MITF inhibitor project, dose response (AID 493073);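 further: SK-MEL-5 melanoma cells with luciferase driven by the MITF target TRPM1 promoter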
Type: functional
Active and inactive are the calls of the source. How the calls were made is not given here.

Reported AC50 of `N#C/C(=C\c1ccc(OCc2ccc(C(=O)O)cc2)cc1)C(=O)N1CCOCC1` : 1.19 µM (active)

Reported AC50 of COc1ccccc1N1C(=O)N(C(C)=O)C2C1Nc1ccccc1N2C (stereo unspecified) : 10.5 µM (active)

Reported AC50 of `COc1ccc(C(=O)/C=C/C(=O)N(CC(=O)NC2CCCCC2)Cc2ccccc2)c(O)c1` : 5.24 µM (active)

Reported AC50 of `Nc1ccc(-c2cc3ccccc3c(=O)o2)cc1` : 0.293 µM (active)

Reported AC50 of `COc1ccc(C(=O)/C(C#N)=N/Nc2ccc([N+](=O)[O-])cc2)cc1` : 8.26 µM (active)

Reported AC50 of `O=C1/C(=C/c2ccccc2[N+](=O)[O-])COc2ccccc21` : 9.8 µM (active)

Reported AC50 of `CCOc1ccc(-[n+]2c(-c3ccc(OC)cc3)cn3c2CCCCC3)cc1` : 2.13 µM (active)

Reported AC50 of `O=C1NC(=O)N(c2ccccc2)C(=O)/C1=C/C=C/c1ccco1` : 8.29 µM (active)

Reported AC50 of `CCOc1ccc(OCc2ccc(C(=O)N/N=C(\C)c3ccccn3)cc2)cc1` : 3.64 µM (active)

Reported AC50 of `N#C/C(=C\C=C\c1ccccc1[N+](=O)[O-])C(=O)NC1CCCCC1` : 7.8 µM (active)

Reported AC50 of `COc1cc2c(cc1OC)C(SC)=NC1(CCCC1)C2` : 9.44 µM (active)
